The following compounds are listed with their measured IC50 values.
- assay.system: recombinant human NaV1.8 stably transfected HEK cells (Homo sapiens)
- Construct: expressed in transfected cells; host or cells: HEK cells, stably transfected
- assay.details: Compound profiling on NaV1.8, human NaV1.8 cell line, SyncroPatch384PE automated patch clamp assay (Example 115, third set of compounds, Table 27)
- Format: cell-based
- condition.description: resting state block (P1 measurement), human NaV1.8 HEK cells, Table 27 (third set of compounds), read-out: P1 IC50
- Procedure: Compound Profiling on NaV1.8 Human NaV1.8 Cell Line SyncroPatch384PE Assay Compounds were tested on recombinant human NaV1.8 stably transfected HEK cells using the SyncroPatch384PE system, an automated patch clamp device. […] Whole cell patch clamp recordings were conducted according to Nanion's standard procedure for SyncroPatch384PE®. […] The potency of the compounds was assessed on two read-outs, resting state block (P1 measurement) or inactivated state block (P2 measurement) to obtain IC50 values. […]
experimental.endpoint: IC50

compound: COc1cc(F)ccc1Oc1nnc(C(F)(F)F)cc1C(=O)Nc1cccc(N2CCOC2=O)c1
result: > 5 µM
//
compound: Cc1cc(Br)ccc1Oc1nnc(C(F)(F)F)cc1C(=O)Nc1cccc(S(C)(=N)=O)c1 (stereo not shown)
result: ≤ 0.2 µM
//
compound: CS(=O)(=O)c1cccc(NC(=O)c2cc(C(F)(F)F)nnc2Oc2cc(F)ccc2Cl)c1
result: 0.201 to 0.5 µM
//
compound: Cc1cc(C#N)ccc1Oc1nnc(C(F)(F)F)cc1C(=O)Nc1cccc(S(C)(=N)=O)c1 (stereo not shown)
result: ≤ 0.2 µM
//
compound: COc1cc(F)ccc1Oc1nnc(C)cc1C(=O)Nc1cccc(S(C)(=O)=O)c1
result: > 5 µM
//
compound: CS(=O)(=O)c1cccc(NC(=O)c2cc(C(F)(F)F)nnc2Oc2ccc(F)cc2Cl)c1
result: ≤ 0.2 µM
//
compound: CS(=O)(=O)c1cc(NC(=O)c2cc(C(F)(F)F)nnc2Oc2ccc(F)cc2Cl)ccn1
result: 0.501 to 1 µM
//
compound: Cc1cc(F)ccc1Oc1nnc(C(F)(F)F)cc1C(=O)Nc1cccc(S(N)(=O)=O)c1
result: ≤ 0.2 µM
//
compound: CS(=O)(=O)c1ccc(F)c(NC(=O)c2cc(C(F)(F)F)nnc2Oc2cc(F)ccc2Cl)c1
result: ≤ 0.2 µM
//
compound: Cc1cc(F)ccc1Oc1nnc(C(F)(F)F)cc1C(=O)Nc1ccc(S(C)(=O)=O)cc1
result: 1 to 5 µM

* * *

- assay.system: recombinant human NaV1.8 stably transfected HEK cells (Homo sapiens, UniProt Q9Y5Y9)
- Construct: expressed in transfected cells; host or cells: HEK cells, stably transfected
- Sequence (Q9Y5Y9 whole entry): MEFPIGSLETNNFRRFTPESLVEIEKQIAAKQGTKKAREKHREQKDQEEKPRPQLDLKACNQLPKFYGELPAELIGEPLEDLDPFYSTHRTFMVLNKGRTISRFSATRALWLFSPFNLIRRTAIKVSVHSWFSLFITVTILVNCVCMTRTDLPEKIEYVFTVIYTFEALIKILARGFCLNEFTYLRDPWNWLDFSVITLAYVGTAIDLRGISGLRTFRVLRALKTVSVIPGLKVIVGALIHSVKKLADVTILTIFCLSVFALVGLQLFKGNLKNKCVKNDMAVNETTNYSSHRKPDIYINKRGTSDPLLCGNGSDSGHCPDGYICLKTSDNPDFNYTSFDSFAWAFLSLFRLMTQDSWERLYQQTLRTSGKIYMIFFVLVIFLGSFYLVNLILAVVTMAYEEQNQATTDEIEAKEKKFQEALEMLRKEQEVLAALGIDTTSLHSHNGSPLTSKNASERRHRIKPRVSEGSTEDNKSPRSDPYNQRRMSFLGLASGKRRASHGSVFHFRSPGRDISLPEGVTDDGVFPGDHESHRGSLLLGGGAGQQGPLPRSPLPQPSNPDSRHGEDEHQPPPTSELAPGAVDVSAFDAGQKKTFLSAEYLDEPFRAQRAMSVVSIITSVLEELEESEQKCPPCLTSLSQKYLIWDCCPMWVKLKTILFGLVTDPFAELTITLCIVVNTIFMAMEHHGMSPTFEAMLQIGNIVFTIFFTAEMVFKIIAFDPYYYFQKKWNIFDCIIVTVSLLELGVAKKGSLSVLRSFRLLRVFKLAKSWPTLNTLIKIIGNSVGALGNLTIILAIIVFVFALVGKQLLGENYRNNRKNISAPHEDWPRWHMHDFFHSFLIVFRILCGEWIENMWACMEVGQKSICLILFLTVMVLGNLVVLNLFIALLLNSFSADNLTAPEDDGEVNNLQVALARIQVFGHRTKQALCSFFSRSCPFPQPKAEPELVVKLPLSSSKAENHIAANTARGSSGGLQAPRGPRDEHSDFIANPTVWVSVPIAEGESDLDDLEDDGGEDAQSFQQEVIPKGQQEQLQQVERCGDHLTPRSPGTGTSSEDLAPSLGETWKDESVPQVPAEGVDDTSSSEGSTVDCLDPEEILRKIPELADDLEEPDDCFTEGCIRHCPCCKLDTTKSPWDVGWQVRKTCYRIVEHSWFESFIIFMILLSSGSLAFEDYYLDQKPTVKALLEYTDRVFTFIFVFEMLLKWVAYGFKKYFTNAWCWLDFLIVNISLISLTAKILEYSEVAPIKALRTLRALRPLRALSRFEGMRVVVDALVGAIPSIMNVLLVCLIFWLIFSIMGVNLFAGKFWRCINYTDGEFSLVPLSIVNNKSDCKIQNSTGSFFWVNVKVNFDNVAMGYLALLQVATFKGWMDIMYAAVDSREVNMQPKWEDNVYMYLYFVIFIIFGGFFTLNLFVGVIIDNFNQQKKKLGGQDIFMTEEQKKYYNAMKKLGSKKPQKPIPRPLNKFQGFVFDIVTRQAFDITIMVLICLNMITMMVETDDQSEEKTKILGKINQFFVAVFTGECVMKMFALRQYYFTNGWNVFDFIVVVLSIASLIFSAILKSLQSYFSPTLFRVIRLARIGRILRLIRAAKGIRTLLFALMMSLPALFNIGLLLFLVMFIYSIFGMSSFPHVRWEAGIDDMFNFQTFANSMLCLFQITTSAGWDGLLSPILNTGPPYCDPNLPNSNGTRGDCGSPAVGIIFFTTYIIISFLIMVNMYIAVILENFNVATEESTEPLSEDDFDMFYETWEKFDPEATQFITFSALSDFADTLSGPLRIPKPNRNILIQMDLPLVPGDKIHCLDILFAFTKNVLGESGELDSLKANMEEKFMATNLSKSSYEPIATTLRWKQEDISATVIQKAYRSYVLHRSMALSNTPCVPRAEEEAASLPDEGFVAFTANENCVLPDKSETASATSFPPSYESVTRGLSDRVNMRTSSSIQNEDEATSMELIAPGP
- assay.details: Compound profiling on NaV1.8, human NaV1.8 cell line, SyncroPatch384PE automated patch clamp assay (Example 102, first set of compounds, Table 16)
- Type: cell-based
- condition.description: inactivated state block (P2 measurement), human NaV1.8 HEK cells, Table 16 (first set of compounds), read-out: P2IC50

compound: CC(C#N)Oc1cc(F)c(Oc2ncc(C(F)(F)F)cc2C(=O)Nc2ccc(C(N)=O)cc2)cc1F (centres unmarked)
IC50: 0.2 to 0.5 µM
--
compound: NC(=O)c1cccc(NC(=O)c2cc(C(F)(F)F)cnc2OC2CC(C(F)(F)F)C2)c1 (mixture of isomers)
IC50: 0.2 to 0.5 µM
--
compound: CS(=N)(=O)c1cccc(NC(=O)c2cc(C(F)(F)F)cnc2OC2CC3(C2)CC(F)(F)C3)c1 (centres unmarked)
IC50: 0.2 to 0.5 µM
--
compound: Cc1ccc(Oc2ncc(C(F)(F)F)cc2C(=O)Nc2cccc(S(C)(=N)=O)c2)c(OC(F)F)n1 (centres unmarked)
IC50: ≤ 0.02 µM
--
compound: Cc1ccc(Oc2ncc(C(F)(F)F)cc2C(=O)Nc2cccc(C(N)=O)c2)c(OC(F)F)n1
IC50: 0.04 to 0.2 µM

* * *

- assay.system: recombinant human NaV1.8 stably transfected HEK cells (Homo sapiens)
- Construct: expressed in transfected cells; host or cells: HEK cells, stably transfected
- assay.details: Compound profiling on NaV1.8, human NaV1.8 cell line, SyncroPatch384PE automated patch clamp assay (Example 102, first set of compounds, Table 16)
- Format: cell-based
- condition.description: resting state block (P1 measurement), human NaV1.8 HEK cells, Table 16 (first set of compounds), read-out: P1IC50

compound: Cc1c(C(F)(F)F)nnc(OCC23CC(F)(C2)C3)c1C(=O)Nc1cccc(S(C)(=N)=O)c1 (centres unmarked)
IC50: 200 to 500 nM
//
compound: Cc1nc(C#N)ccc1Oc1ncc(C(F)(F)F)cc1C(=O)Nc1cccc(C(N)=O)c1
IC50: 200 to 500 nM
//
compound: CC(C)Oc1ccc(Oc2ncc(C(F)(F)F)cc2C(=O)Nc2ccc(-c3ncc[nH]3)cc2)c(F)c1F
IC50: 200 to 500 nM
//
compound: COc1ccc(Oc2nnc(C(F)(F)F)c(C)c2C(=O)Nc2cccc(S(C)(=O)=O)c2)c(C)n1
IC50: 40 to 200 nM
//
compound: CS(=N)(=O)c1cccc(NC(=O)c2cc(C(F)(F)F)cnc2Oc2cccnc2OC(F)(F)F)c1 (single isomer, unassigned) [Compound 1642]
IC50: ≤ 20 nM

* * *

The following molecules are listed with their measured IC50 values.
- assay.system: recombinant human NaV1.8 stably transfected HEK cells (Homo sapiens)
- Construct: expressed in transfected cells; host or cells: HEK cells, stably transfected
- assay.details: Compound profiling on NaV1.8, human NaV1.8 cell line, SyncroPatch384PE automated patch clamp assay (Example 102, first set of compounds, Table 16)
- Type: cell-based
- condition.description: resting state block (P1 measurement), human NaV1.8 HEK cells, Table 16 (first set of compounds), read-out: P1IC50
- Method: Compound Profiling on NaV1.8—Human NaV1.8 Cell Line—SyncroPatch384PE Assay Compounds were tested on recombinant human NaV1.8 stably transfected HEK cells using the SyncroPatch384PE system, an automated patch clamp device. […] Compounds were tested in triplicate in 0.1% DMSO and 0.030% Pluronic Acid. […] Compounds were then applied by the SynchroPatch into each well and the current was recorded for five minutes in EC, followed by application of tetracaine to achieve full block at the end of the experiment. […]

molecule: COc1c(Oc2nccc(C(F)(F)F)c2C(=O)Nc2cccc(S(C)(=N)=O)c2)ccc(F)c1F (stereo not drawn)
IC50: ≤ 20 nM
--
molecule: Cc1c(C(F)(F)F)nnc(Oc2ccc(Cl)cc2F)c1C(=O)Nc1ccc(C(N)=O)cc1
IC50: 40 to 200 nM
--
molecule: Cc1cc(F)ccc1Oc1ncc(Br)c(C)c1C(=O)Nc1cccc([S@@](C)(=N)=O)c1
IC50: ≤ 20 nM
--
molecule: CS(=N)(=O)c1cccc(NC(=O)c2cc(C(F)(F)F)cnc2Oc2ccc(-n3ccnc3)cc2)c1 (stereo not drawn)
IC50: 200 to 500 nM
--
molecule: COC(=O)C12CC(NC(=O)c3cc(C(F)(F)F)cnc3Oc3ccc(F)c(F)c3OC)(C1)C2
IC50: 200 to 500 nM
--
molecule: Cc1ccc2c(Oc3ncc(C(F)(F)F)cc3C(=O)Nc3cccc(S(C)(=O)=O)c3)cccc2n1
IC50: 200 to 500 nM
--
molecule: COc1nc(C)ccc1Oc1ncc(C(F)(F)F)cc1C(=O)Nc1cccc(S(C)(=O)=O)c1
IC50: ≤ 20 nM
--
molecule: Cc1c(Oc2nnc(C(F)(F)F)c(C)c2C(=O)Nc2cccc(S(C)(=N)=O)c2)ccc(Cl)c1F (single isomer, unassigned) [Compound 1487]
IC50: ≤ 20 nM
--
molecule: COc1ncc(Oc2ncc(C(F)(F)F)cc2C(=O)Nc2cccc(S(C)(=N)=O)c2)cc1F (stereo not drawn)
IC50: 200 to 500 nM

* * *

- assay.system: recombinant human NaV1.8 stably transfected HEK cells (Homo sapiens, UniProt Q9Y5Y9)
- Construct: expressed in transfected cells; host or cells: HEK cells, stably transfected
- assay.details: Compound profiling on NaV1.8, human NaV1.8 cell line, SyncroPatch384PE automated patch clamp assay (Example 102, first set of compounds, Table 16)
- Assay type: cell-based
- condition.description: inactivated state block (P2 measurement), human NaV1.8 HEK cells, Table 16 (first set of compounds), read-out: P2IC50
pIC50: −log10 of the molar value.
experimental.endpoint: pIC50

compound: CS(=N)(=O)c1cccc(NC(=O)c2cc(C(F)(F)F)cnc2Oc2ccc(OCc3ccccc3)cc2)c1 (stereo not shown)
result: 6.70 to 7.40

compound: COc1ccc(Oc2nnc(C(F)(F)F)c(C)c2C(=O)Nc2cccc(S(C)(=N)=O)c2)c(C)n1 (stereo not shown) [Compound 1507]
result: 6.70 to 7.40

compound: Cc1cc(F)ccc1Oc1nnc(C(C)O)c(C)c1C(=O)Nc1cccc(S(C)(=N)=O)c1 (stereo not shown)
result: 6.30 to 6.70

compound: Cc1nn(C)cc1Oc1ncc(C(F)(F)F)cc1C(=O)Nc1cccc(S(C)(=N)=O)c1 (stereo not shown)
result: 6.30 to 6.70

compound: COc1cc(Cl)ccc1Oc1nnc(C(F)(F)F)c(C)c1C(=O)Nc1ccc(C(N)=O)cc1
result: 7.40 to 7.70

compound: COc1cc(C#N)ccc1Oc1nnc(C(F)(F)F)c(C)c1C(=O)Nc1cccc([S@@](C)(=N)=O)c1 (single isomer, unassigned)
result: ≥ 7.70

compound: CS(=O)(=O)c1cccc(NC(=O)c2cc(C(F)(F)F)cnc2OCC(F)F)c1
result: 6.30 to 6.70

Provenance of the data: patent US20240336574A1
